Assay: Metabolic stability in rat hepatocytes (rHep)
Details: n = 1 or geometric mean of n = 2-3
readout.kind: rHep CLint (μL/min/1E6)
Provide only the numeric value, understood in μL/min/1E6.

molecule.smiles: COC1(C)CCN(c2ccc3nccc(C(=O)NCC(=O)N4CSC[C@H]4C#N)c3c2)CC1
unit.name: μL/min/1E6
recorded.measurement: 7.6

Turning now to a further record.
Exam item: I have this compound here, N#C[C@@H]1CSCN1C(=O)CNC(=O)c1ccnc2ccc(N3CC4(CC4)C3)cc12 , and I need its recorded rHep CLint.
Marked response: 8.1

----------
Assay: Caco-2 cell permeability
Conditions: human
Returns one of 1.0 or 0.0; 1.0 when Papp A→B is >= 0.8 ×10⁻⁶ cm/s.

molecule: CC1(C)COC12CN(c1ccc3nccc(C(=O)NCC(=O)N4CSC[C@H]4C#N)c3c1)C2
discrete.label: 1.0
--
molecule: CCC1(O)CN(c2ccc3nccc(C(=O)NCC(=O)N4CSC[C@H]4C#N)c3c2)C1
discrete.label: 0.0
--
molecule: CN1CCC(F)(c2ccc3nccc(C(=O)NCC(=O)N4CSC[C@H]4C#N)c3c2)CC1
discrete.label: 0.0

--- query ---
Exam item: Does the reported Papp A→B for COC1(C)CCN(c2ccc3nccc(C(=O)NCC(=O)N4CSC[C@H]4C#N)c3c2)CC1 fall at or above the 0.8 ×10⁻⁶ cm/s mark?
Marked response: 1.0

----------
Assay: Caco-2 cell permeability
Conditions: human
Label Met when Papp A→B < 0.4 ×10⁻⁶ cm/s; otherwise Not met.

Solved cases (5 shown):
compound: C[C@@H]1CCCN(c2ccc3nccc(C(=O)NCC(=O)N4CSC[C@H]4C#N)c3c2)C1=O (single isomer, unassigned)
discrete.label: Not met
--
compound: CCC1(O)CCN(c2ccc3nccc(C(=O)NCC(=O)N4CSC[C@H]4C#N)c3c2)CC1
discrete.label: Met
--
compound: N#C[C@@H]1CSCN1C(=O)CNC(=O)c1ccnc2ccc(N3CCCCC3=O)cc12
discrete.label: Met
--
compound: CC(=O)N1CC2(C1)CN(c1ccc3nccc(C(=O)NCC(=O)N4CSC[C@H]4C#N)c3c1)C2
discrete.label: Met
--
compound: CC1(C)OCCN(c2ccc3nccc(C(=O)NCC(=O)N4CSC[C@H]4C#N)c3c2)C1=O
discrete.label: Met

Exam item: Problem: For the compound C[C@H]1CN(c2ccc3nccc(C(=O)NCC(=O)N4CSC[C@H]4C#N)c3c2)CCO1 , is Papp A→B under 0.4 ×10⁻⁶ cm/s?
Marked response: Not met

Exam item: Problem: For the compound CC1(C)CCN(c2ccc3nccc(C(=O)NCC(=O)N4CSC[C@H]4C#N)c3c2)C1=O , is Papp A→B under 0.4 ×10⁻⁶ cm/s?
Marked response: Met

Exam item: Problem: For the compound N#C[C@@H]1CSCN1C(=O)CNC(=O)c1ccnc2ccc(N3CC(F)C3)cc12 , is Papp A→B under 0.4 ×10⁻⁶ cm/s?
Marked response: Not met

Exam item: Problem: For the compound Cc1ccc(-c2ccc3nccc(C(=O)NCC(=O)N4CSC[C@H]4C#N)c3c2)cn1 , is Papp A→B under 0.4 ×10⁻⁶ cm/s?
Marked response: Not met

Exam item: Problem: For the compound CC(C)C1(O)CCN(c2ccc3nccc(C(=O)NCC(=O)N4CSC[C@H]4C#N)c3c2)CC1 , is Papp A→B under 0.4 ×10⁻⁶ cm/s?
Marked response: Not met

Exam item: Problem: For the compound C[C@@]1(O)CCN(c2ccc3nccc(C(=O)NCC(=O)N4CSC[C@H]4C#N)c3c2)C1 , is Papp A→B under 0.4 ×10⁻⁶ cm/s?
Marked response: Met

Exam item: Problem: For the compound N#C[C@@H]1CSCN1C(=O)CNC(=O)c1ccnc2ccc(N3CC(C(F)F)C3)cc12 , is Papp A→B under 0.4 ×10⁻⁶ cm/s?
Marked response: Not met

Exam item: Problem: For the compound N#C[C@@H]1CSCN1C(=O)CNC(=O)c1ccnc2ccc(N3CC(F)(F)OC(F)(F)C3)cc12 , is Papp A→B under 0.4 ×10⁻⁶ cm/s?
Marked response: Not met

Exam item: Problem: For the compound N#C[C@@H]1CSCN1C(=O)CNC(=O)c1ccnc2ccc(N3CCC4(CC3)OCCO4)cc12 , is Papp A→B under 0.4 ×10⁻⁶ cm/s?
Marked response: Not met

Exam item: Problem: For the compound CC1(C)CN(c2ccc3nccc(C(=O)NCC(=O)N4CSC[C@H]4C#N)c3c2)CCO1 , is Papp A→B under 0.4 ×10⁻⁶ cm/s?
Marked response: Not met

Exam item: Problem: For the compound N#C[C@@H]1CSCN1C(=O)CNC(=O)c1ccnc2ccc(N3CC4(COC4)C3)cc12 , is Papp A→B under 0.4 ×10⁻⁶ cm/s?
Marked response: Not met

Exam item: Problem: For the compound C[C@@H]1COC[C@H](C)N1c1ccc2nccc(C(=O)NCC(=O)N3CSC[C@H]3C#N)c2c1 , is Papp A→B under 0.4 ×10⁻⁶ cm/s?
Marked response: Not met

Exam item: Problem: For the compound N#C[C@@H]1CSCN1C(=O)CNC(=O)c1ccnc2ccc(N3CC4(CC(F)C4)C3)cc12 , is Papp A→B under 0.4 ×10⁻⁶ cm/s?
Marked response: Not met

Exam item: Problem: For the compound N#C[C@@H]1CSCN1C(=O)CNC(=O)c1c(F)cnc2ccc(N3CCOCC3)cc12 , is Papp A→B under 0.4 ×10⁻⁶ cm/s?
Marked response: Not met

Exam item: Problem: For the compound Cc1noc(C)c1-c1ccc2nccc(C(=O)NCC(=O)N3CSC[C@H]3C#N)c2c1 , is Papp A→B under 0.4 ×10⁻⁶ cm/s?
Marked response: Not met
